- Tested on: P388 mouse leukemia cells
- cond: 92 h
Where a SMILES comes first, the peptide text is derived from it. [ ]: non-standard residue; d: D form. The star is where a group is joined. NHCH2CH2OH = OCCN*; For = O=C*
readout label: cell viability/% (%)
Give the value, in units of %, as a plain number.

CC(C)C[C@@H](NC(=O)[C@H](C)NC(=O)CNC(=O)[C@@H](NC=O)C(C)C)C(=O)N[C@@H](C)C(=O)N[C@@H](C(=O)N[C@H](C(=O)N[C@@H](C(=O)N[C@@H](Cc1c[nH]c2ccccc12)C(=O)N[C@@H](C(=O)N[C@@H](Cc1c[nH]c2ccccc12)C(=O)N[C@@H](C(=O)N[C@@H](Cc1c[nH]c2ccccc12)C(=O)N[C@H](CC(C)C)C(=O)N[C@@H](Cc1c[nH]c2ccccc12)C(=O)NCCO)C(C)C)C(C)C)[C@H](C)O)C(C)C)C(C)C [compound 4493] (For-VGA[dL]A[dV]V[dT]W[dV]W[dV]W[dL]W-NHCH2CH2OH) = 100.0
CNC(=O)C[C@@H](NC(=O)[C@H](Cc1c[nH]c2ccccc12)NC(=O)[C@@H](CC(C)C)NC(=O)[C@@H](NC(=O)[C@@H](CC(C)C)NC(=O)[C@H](C)NC(=O)[C@H](NC(=O)[C@H](C)NC(=O)CNC(=O)[C@@H](NC=O)C(C)C)C(C)C)C(C)C)C(=O)N[C@@H](Cc1c[nH]c2ccccc12)C(=O)N[C@@H](C(=O)N[C@@H](Cc1c[nH]c2ccccc12)C(=O)N[C@@H](C(=O)N[C@@H](Cc1c[nH]c2ccccc12)C(=O)NCCO)C(C)C)C(C)C [compound 3144] (For-VGA[dV]A[dL]V[dL]W[dD](NHMe)W[dV]W[dV]W-NHCH2CH2OH) = 100.0

Entry CNC(=O)C[C@@H](NC(=O)[C@@H](NC(=O)[C@@H](CC(C)C)NC(=O)[C@H](C)NC(=O)[C@H](NC(=O)[C@H](C)NC(=O)CNC(=O)[C@@H](NC=O)C(C)C)C(C)C)C(C)C)C(=O)N[C@@H](Cc1c[nH]c2ccccc12)C(=O)N[C@H](CC(C)C)C(=O)N[C@@H](Cc1c[nH]c2ccccc12)C(=O)N[C@@H](C(=O)N[C@@H](Cc1c[nH]c2ccccc12)C(=O)N[C@H](CC(C)C)C(=O)N[C@@H](Cc1c[nH]c2ccccc12)C(=O)NCCO)C(C)C [compound 12687] (For-VGA[dV]A[dL]V[dD](NHMe)W[dL]W[dV]W[dL]W-NHCH2CH2OH) : cell viability/% on P388 mouse leukemia cells = 100.0

# CC(C)C[C@@H](NC(=O)[C@H](C)NC(=O)[C@H](NC(=O)[C@H](C)NC(=O)CNC(=O)[C@@H](NC=O)C(C)C)C(C)C)C(=O)N[C@H](C(=O)N[C@@H](C(=O)N[C@@H](Cc1c[nH]c2ccccc12)C(=O)N[C@@H](C(=O)N[C@@H](Cc1c[nH]c2ccccc12)C(=O)N[C@H](CC(C)C)C(=O)N[C@@H](Cc1c[nH]c2ccccc12)C(=O)N[C@H](CC(C)C)C(=O)N[C@@H](Cc1c[nH]c2ccccc12)C(=O)NCCO)[C@H](C)O)[C@H](C)O)C(C)C [compound 8374] (For-VGA[dV]A[dL]V[dT]W[dT]W[dL]W[dL]W-NHCH2CH2OH) with P388 mouse leukemia cells: cell viability/% is 66.4

Entry CNC(=O)C[C@@H](NC(=O)[C@@H](NC(=O)[C@@H](CC(C)C)NC(=O)[C@H](C)NC(=O)[C@H](NC(=O)[C@H](C)NC(=O)CNC(=O)[C@@H](NC=O)C(C)C)C(C)C)C(C)C)C(=O)N[C@@H](Cc1c[nH]c2ccccc12)C(=O)N[C@@H](C(=O)N[C@@H](Cc1c[nH]c2ccccc12)C(=O)N[C@@H](C(=O)N[C@@H](Cc1c[nH]c2ccccc12)C(=O)N[C@H](CC(C)C)C(=O)N[C@@H](Cc1c[nH]c2ccccc12)C(=O)NCCO)C(C)C)C(C)C [compound 11226] (For-VGA[dV]A[dL]V[dD](NHMe)W[dV]W[dV]W[dL]W-NHCH2CH2OH) , P388 mouse leukemia cells data, cell viability/% value: 76.8

Measured cell viability/% (P388 mouse leukemia cells), entry CC(C)C[C@@H](NC(=O)[C@H](C)NC(=O)CNC(=O)[C@@H](NC=O)C(C)C)C(=O)N[C@@H](C)C(=O)N[C@H](CC(C)C)C(=O)N[C@H](C(=O)N[C@H](CC(C)C)C(=O)N[C@@H](Cc1c[nH]c2ccccc12)C(=O)N[C@H](CC(C)C)C(=O)N[C@@H](Cc1c[nH]c2ccccc12)C(=O)N[C@@H](C(=O)N[C@@H](Cc1c[nH]c2ccccc12)C(=O)N[C@@H](C(=O)N[C@@H](Cc1c[nH]c2ccccc12)C(=O)NCCO)C(C)C)[C@H](C)O)C(C)C [compound 3143] (For-VGA[dL]A[dL]V[dL]W[dL]W[dT]W[dV]W-NHCH2CH2OH) : 99.9

Recorded cell viability/% for CC(C)C[C@@H](NC(=O)[C@H](C)NC(=O)[C@H](NC(=O)[C@H](C)NC(=O)CNC(=O)[C@@H](NC=O)C(C)C)C(C)C)C(=O)N[C@H](C(=O)N[C@H](CC(C)C)C(=O)N[C@@H](Cc1c[nH]c2ccccc12)C(=O)N[C@@H](C(=O)N[C@@H](Cc1c[nH]c2ccccc12)C(=O)N[C@H](CC(C)C)C(=O)N[C@@H](Cc1c[nH]c2ccccc12)C(=O)N[C@@H](C(=O)N[C@@H](Cc1c[nH]c2ccccc12)C(=O)NCCO)C(C)C)C(C)C)C(C)C [compound 9742] (For-VGA[dV]A[dL]V[dL]W[dV]W[dL]W[dV]W-NHCH2CH2OH) on P388 mouse leukemia cells was 0.0

Known value: P388 mouse leukemia cells cell viability/% of the molecule CNC(=O)C[C@@H](NC(=O)[C@@H](NC(=O)[C@@H](CC(C)C)NC(=O)[C@H](C)NC(=O)[C@@H](CC(C)C)NC(=O)[C@H](C)NC(=O)CNC(=O)[C@@H](NC=O)C(C)C)C(C)C)C(=O)N[C@@H](Cc1c[nH]c2ccccc12)C(=O)N[C@@H](C(=O)N[C@@H](Cc1c[nH]c2ccccc12)C(=O)N[C@@H](C(=O)N[C@@H](Cc1c[nH]c2ccccc12)C(=O)N[C@H](CC(C)C)C(=O)N[C@@H](Cc1c[nH]c2ccccc12)C(=O)NCCO)C(C)C)C(C)C [compound 2951] (For-VGA[dL]A[dL]V[dD](NHMe)W[dV]W[dV]W[dL]W-NHCH2CH2OH) equals 93.1
